Reported Kd values follow for various binders
Biological target: T1, cynomolgus monkey SIRPγ-His monomer protein (cynomolgus monkey, UniProt Q9P1W8 29-359 (human entry), limits assumed)
T1 construct: also called Cyno SIRPγ; Cyno SIRPγ-His
T1 chain: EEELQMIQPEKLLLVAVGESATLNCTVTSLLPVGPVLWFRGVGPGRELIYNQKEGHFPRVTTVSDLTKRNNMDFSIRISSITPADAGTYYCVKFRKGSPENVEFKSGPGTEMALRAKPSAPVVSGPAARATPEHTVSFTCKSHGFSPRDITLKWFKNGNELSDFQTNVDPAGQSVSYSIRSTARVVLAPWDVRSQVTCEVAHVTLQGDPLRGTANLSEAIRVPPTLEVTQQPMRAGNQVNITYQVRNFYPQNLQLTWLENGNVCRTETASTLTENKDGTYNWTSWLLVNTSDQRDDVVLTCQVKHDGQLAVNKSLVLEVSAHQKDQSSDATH
Assay: BLI Octet, antibody on AHC, global 1:2 model

>  <BINDER>
Antibody 95 (antibody, V domains shown) VH: QVQLVQSGAEVKKPGASVKVSCKASGYTFTSYYMHWVRQAPGQGLEWMGWMNPNSGNTGYAQKFQGRVTMTRDTSTSTVYMELSSLRSEDTAVYYCARDQMYSSYGMDVWGQGTTVTVSS VL: DIQMTQSPSSLSASVGDRVTITCRASESITNWLAWYQQKPGKAPKLLIYKASSLESGVPSRFSGSGSGTDFTLTISSLQPEDFATYYCQQSYGTPYTFGQGTKVEIK

>  <Kd>
40.3 nM

$$$$
>  <BINDER>
Antibody 83 (antibody, V domains shown) VH: QVQLVQSGAEVKKPGASVKVSCKASGYSFSDYYMHWVRQAPGQGLEWMGWMSPNSGNTGYAQKFQGRVTMTRDTSTSTVYMELSSLRSEDTAVYYCARQREEYGHYYYGMDVWGQGTMVTVSS VL: EIVMTQSPATLSVSPGERATLSCRASQSLGSTYLAWYQQKPGQAPRLLIYGASTRATGIPARFSGSGSGTEFTLTISSLQSEDFAVYYCQQYYSSPPTFGQGTKVEIK

>  <Kd>
11.7 nM

$$$$
>  <BINDER>
Antibody 97 (antibody, V domains shown) VH: QVQLVQSGAEVKKPGASVKVSCKASGHTFNNNYIHWVRQAPGQGLEWMGIINPSGGSTSYAQKFQGRVTMTRDTSTSTVYMELSSLRSEDTAVYYCARQIQDYGYYYYGMDVWGQGTTVTVSS VL: EIVMTQSPATLSVSPGERATLSCRASQSVSKYLAWYQQKPGQAPRLLIYAISARAAGIPARFSGSGSGTEFTLTISSLQSEDFAVYYCQQYYSSPPTFGQGTKVEIK

>  <Kd>
16.3 nM

$$$$
